# target entity: Voltage-dependent L-type calcium channel subunit alpha-1C (Rattus norvegicus)
# Sequence (P22002 whole entry): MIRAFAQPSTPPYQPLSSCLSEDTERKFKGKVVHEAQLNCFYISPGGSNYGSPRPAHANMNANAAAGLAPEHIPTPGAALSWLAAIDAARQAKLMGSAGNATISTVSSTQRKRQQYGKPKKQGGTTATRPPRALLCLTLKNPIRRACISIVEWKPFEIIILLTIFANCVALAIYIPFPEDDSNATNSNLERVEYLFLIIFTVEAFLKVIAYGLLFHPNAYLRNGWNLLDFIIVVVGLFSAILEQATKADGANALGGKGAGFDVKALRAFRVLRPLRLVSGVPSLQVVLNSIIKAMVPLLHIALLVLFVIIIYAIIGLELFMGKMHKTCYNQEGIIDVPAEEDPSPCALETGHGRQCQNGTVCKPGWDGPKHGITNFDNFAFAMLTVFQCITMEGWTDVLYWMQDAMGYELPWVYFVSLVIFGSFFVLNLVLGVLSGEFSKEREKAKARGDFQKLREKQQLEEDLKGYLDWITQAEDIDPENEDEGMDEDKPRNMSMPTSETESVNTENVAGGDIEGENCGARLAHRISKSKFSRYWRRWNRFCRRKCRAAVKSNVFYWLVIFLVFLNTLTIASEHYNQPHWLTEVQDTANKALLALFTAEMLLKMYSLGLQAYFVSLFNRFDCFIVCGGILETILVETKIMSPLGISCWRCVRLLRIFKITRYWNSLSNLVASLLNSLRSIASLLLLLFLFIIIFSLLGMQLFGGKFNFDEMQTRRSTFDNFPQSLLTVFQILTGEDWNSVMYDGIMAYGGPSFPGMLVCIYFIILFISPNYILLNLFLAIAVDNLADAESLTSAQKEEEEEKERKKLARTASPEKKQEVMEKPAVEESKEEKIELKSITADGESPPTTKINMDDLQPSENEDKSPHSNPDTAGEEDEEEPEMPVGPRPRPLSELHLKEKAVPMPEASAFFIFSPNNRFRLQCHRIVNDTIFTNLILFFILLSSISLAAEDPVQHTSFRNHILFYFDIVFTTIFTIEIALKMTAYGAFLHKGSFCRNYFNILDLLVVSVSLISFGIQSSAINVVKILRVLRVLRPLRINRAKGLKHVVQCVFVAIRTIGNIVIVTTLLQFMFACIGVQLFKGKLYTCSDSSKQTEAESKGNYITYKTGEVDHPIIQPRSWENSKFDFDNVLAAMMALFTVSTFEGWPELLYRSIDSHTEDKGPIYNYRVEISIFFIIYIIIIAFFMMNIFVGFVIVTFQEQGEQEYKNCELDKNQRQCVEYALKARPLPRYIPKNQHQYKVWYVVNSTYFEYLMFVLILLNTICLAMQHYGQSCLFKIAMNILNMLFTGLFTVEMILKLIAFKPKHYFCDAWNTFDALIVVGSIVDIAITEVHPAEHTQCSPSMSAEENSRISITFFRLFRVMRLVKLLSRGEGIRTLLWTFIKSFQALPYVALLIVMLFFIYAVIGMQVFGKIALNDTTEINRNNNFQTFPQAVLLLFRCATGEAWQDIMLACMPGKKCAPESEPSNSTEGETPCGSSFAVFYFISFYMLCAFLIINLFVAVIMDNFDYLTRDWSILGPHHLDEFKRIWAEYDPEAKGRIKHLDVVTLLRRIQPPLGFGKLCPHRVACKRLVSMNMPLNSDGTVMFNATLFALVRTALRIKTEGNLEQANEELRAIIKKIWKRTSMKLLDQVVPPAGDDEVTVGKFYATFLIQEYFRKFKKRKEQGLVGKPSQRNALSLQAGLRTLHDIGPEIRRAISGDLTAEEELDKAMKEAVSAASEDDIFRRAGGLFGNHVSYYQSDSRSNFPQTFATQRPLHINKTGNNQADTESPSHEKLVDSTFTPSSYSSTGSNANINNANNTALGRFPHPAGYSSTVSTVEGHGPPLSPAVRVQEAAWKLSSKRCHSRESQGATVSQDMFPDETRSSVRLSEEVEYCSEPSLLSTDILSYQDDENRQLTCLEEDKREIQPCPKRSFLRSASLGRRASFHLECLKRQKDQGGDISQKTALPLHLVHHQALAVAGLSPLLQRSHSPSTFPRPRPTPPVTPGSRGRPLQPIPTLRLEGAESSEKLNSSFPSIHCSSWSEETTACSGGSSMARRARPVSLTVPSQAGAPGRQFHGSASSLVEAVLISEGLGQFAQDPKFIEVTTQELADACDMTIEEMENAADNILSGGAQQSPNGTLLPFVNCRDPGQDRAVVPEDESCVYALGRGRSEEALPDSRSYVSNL
# experimental details: Inhibition of Cav1.2 calcium current measured using FLIPR in rat aortic A7r5 cells
# Assay type: functional, cell-based
Reported values of pIC50 for individual entries
# pIC50: negative log10 of molar concentration; output just the value

Reference set (5 entries):
compound: CC(C)[C@@H](NC(=O)NC1CCN(CCc2ccccc2)CC1)c1ccc(F)cc1
pIC50: 5.30
//
compound: COCCOc1cccc(F)c1CCN1CCC(CC(=O)N[C@@H](c2ccc(F)cc2)C(C)C)CC1
pIC50: 5.51
//
compound: CCC(CC)(CNC(=O)C1CCN(CCc2ccccc2)CC1)c1ccc(F)cc1
pIC50: 5.36
//
compound: COc1ccccc1CCN1CCC(CC(=O)N[C@@H](c2ccc(F)cc2)C(C)C)CC1
pIC50: 5.17
//
compound: COCCOc1cc(F)ccc1CCN1CCC(CC(=O)N[C@@H](c2ccc(F)cc2)C(C)C)CC1
pIC50: 5.72

Problem: Quick one: give measured pIC50 for CC(C)C(CNC(=O)C1CCN(CCc2ccccc2)CC1)c1ccc(F)cc1 (stereo unspecified)
Result: 5.41

Problem: Quick one: give measured pIC50 for CC(C)[C@@H](NC(=O)CC1CCN(CCc2ccccc2)CC1)c1ccc(F)cc1
Result: 5.00

Problem: Quick one: give measured pIC50 for COCC(=O)O[C@]1(CCN(C)CCCc2nc3ccccc3[nH]2)CCc2cc(F)ccc2[C@@H]1C(C)C
Result: 5.96

Problem: Quick one: give measured pIC50 for COCCOc1ccc(F)cc1CCN1CCC(CC(=O)N[C@@H](c2ccc(F)cc2)C(C)C)CC1
Result: 5.51

Problem: Quick one: give measured pIC50 for COc1cccc(CCN2CCC(CC(=O)N[C@@H](c3ccc(F)cc3)C(C)C)CC2)c1
Result: 5.66

Problem: Quick one: give measured pIC50 for COCCOc1c(F)cccc1CCN1CCC(CC(=O)N[C@@H](c2ccc(F)cc2)C(C)C)CC1
Result: 5.68
